The measured values listed here are drawn from patent US8946234B2.

assay: physchem; assay type: physicochemical
measure.name: logP

Known results for compounds:
{"compound": "CC(C)NC(=O)c1cc(NC(=O)c2ncc(C(F)(F)F)cc2Cl)ccc1Cl [Ii-2]", "logP": "2.73^a)"}
{"compound": "Cn1nc(C(F)(F)C(F)(F)F)c(C(F)(F)F)c1C(=O)Nc1cc(Br)c(I)c(C(=O)NC2CC2)c1 [Ik-210]", "logP": "3.92^a)"}
{"compound": "Cn1nc(C(F)(F)C(F)(F)F)c(C(F)(F)F)c1C(=O)Nc1ccc(I)c(C(=O)NCc2ccccc2)c1 [Ik-184]", "logP": "4.07^a)"}

# input compound: Cn1nc(C(F)(F)C(F)(F)F)c(C(F)(F)F)c1C(=O)Nc1cc(F)c(I)c(C(=O)NCC(F)(F)F)c1 [Ik-226] ; wanted: its logP 3.95^a)
